target: Jak2 wild type (Homo sapiens); assay: in vitro kinase assay with recombinant protein, autophosphorylation
Sequence (O60674 whole entry): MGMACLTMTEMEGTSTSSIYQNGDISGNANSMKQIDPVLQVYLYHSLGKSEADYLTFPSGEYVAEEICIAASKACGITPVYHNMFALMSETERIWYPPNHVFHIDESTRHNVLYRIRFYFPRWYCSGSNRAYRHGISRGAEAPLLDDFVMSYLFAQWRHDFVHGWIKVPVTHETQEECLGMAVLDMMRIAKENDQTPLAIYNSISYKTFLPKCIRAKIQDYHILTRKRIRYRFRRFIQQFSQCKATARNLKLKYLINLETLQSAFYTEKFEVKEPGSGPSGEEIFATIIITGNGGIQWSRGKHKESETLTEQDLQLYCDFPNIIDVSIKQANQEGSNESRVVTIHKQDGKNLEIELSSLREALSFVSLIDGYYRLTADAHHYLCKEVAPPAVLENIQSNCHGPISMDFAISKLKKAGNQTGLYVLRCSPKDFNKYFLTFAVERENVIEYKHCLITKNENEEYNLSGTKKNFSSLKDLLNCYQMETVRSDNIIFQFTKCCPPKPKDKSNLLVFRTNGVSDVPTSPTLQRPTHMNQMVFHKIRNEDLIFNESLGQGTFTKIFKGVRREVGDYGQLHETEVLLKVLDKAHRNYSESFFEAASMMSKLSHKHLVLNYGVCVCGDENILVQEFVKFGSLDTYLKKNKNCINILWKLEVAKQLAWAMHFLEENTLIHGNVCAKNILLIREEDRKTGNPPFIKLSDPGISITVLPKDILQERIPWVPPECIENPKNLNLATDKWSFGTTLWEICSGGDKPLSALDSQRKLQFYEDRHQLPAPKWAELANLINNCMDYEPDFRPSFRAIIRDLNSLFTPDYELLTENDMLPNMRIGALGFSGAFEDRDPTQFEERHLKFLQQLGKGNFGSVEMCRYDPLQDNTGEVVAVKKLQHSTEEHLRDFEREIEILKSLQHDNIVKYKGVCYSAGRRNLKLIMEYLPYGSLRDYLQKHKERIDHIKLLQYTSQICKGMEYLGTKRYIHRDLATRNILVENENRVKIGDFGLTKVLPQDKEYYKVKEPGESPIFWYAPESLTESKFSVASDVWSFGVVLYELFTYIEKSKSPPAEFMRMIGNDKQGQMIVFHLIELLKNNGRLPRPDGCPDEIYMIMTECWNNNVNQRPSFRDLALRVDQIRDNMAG
measure: IC50

Query :: So what's the measured IC50 for this one? CN(C)c1ccc(C(O)c2cc3ccccc3s2)cc1 (stereo not shown) [A46]
Result :: ~1000 nM
